assay: chemical genetic growth profiling, strain panel (AID 1159580);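 further: tested at 20 µM; growth read once vehicle control cultures reached saturation at 30 °C; lower values mean less growth of the strain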; details: S. cerevisiae deletion strains, growth OD, locus YER155C, strain BEM2 (second series)
In all, about 5,500 compounds went through this assay and about 2,000 (36%) were called active. About 18% were inconclusive and are not listed. No stated cut-off is given here; in the data, active means normalized growth mostly below about 0.91 (no sharp cut-off); inconclusive means no clear call, values can overlap the other calls; inactive means mostly above about 0.92. This is one part of the list.
Answer with one of the outcomes active, inactive

These solved cases illustrate the format of a correct answer.
[[record]]
compound = "CN(CCC(N)CC(=O)N[C@H]1C=CC(n2ccc(N)nc2=O)O[C@@H]1C(=O)O)C(=N)N (stereo partly specified)"
class_assignment = "active"

[[record]]
compound = "COc1c2ccoc2nc2c(OC)c(OCC(O)C(C)(C)O)ccc12 (stereo unspecified)"
class_assignment = "inactive"

[[record]]
compound = "CC[C@H](CCC(C)[C@H]1CCC2C3CCC4C[C@@H](O)CC[C@]4(C)C3CC[C@@]21C)C(C)C (stereo partly specified)"
class_assignment = "inactive"

[[record]]
compound = "CC(CCC(=O)O)[C@H]1CCC2C3C[C@H](O)[C@@H]4C[C@H](O)CC[C@]4(C)C3CC[C@@]21C (stereo partly specified)"
class_assignment = "inactive"


Per the assay record, what outcome was assigned to CCC(=O)Nc1ccc(Cl)c(Cl)c1 ?
inactive

Per the assay record, what outcome was assigned to COC(=O)CCC(C)C1CCC2C3CC[C@@H]4C[C@H](O)CC[C@]4(C)C3C[C@H](O)[C@]12C (stereo partly specified) ?
active

Per the assay record, what outcome was assigned to OC[C@H]1OC([S-])[C@H](O)[C@@H](O)[C@@H]1O.[Au+] (stereo partly specified) ?
inactive

Per the assay record, what outcome was assigned to COC(=O)CCCOc1ccc(Cl)cc1Cl ?
inactive

Per the assay record, what outcome was assigned to CC(CCC(=O)O)[C@H]1CCC2C3CC[C@@H]4C[C@H](O)CC[C@]4(C)C3CC[C@@]21C (stereo partly specified) ?
inactive

Per the assay record, what outcome was assigned to Cc1ncc([N+](=O)[O-])n1CC(C)O (stereo unspecified) ?
inactive

Per the assay record, what outcome was assigned to Nc1ccn(C2O[C@H](CO)[C@@H](O)[C@H]2O)c(=O)n1 (stereo partly specified) ?
inactive

Per the assay record, what outcome was assigned to C=Cc1c(C)c2[n-]c1=Cc1[n-]c(c(CC)c1C)C=c1[n-]c3c(c1C)C(=O)C(C(=O)[O-])C=3c1[n-]c(c(C)c1CCC(=O)[O-])C=2.[Cu] (stereo unspecified) ?
active

Per the assay record, what outcome was assigned to CCCCS(=N)(=O)CCC(N)C(=O)O (stereo unspecified) ?
inactive

Per the assay record, what outcome was assigned to COc1c2ccccc2nc2occc12 ?
active

Per the assay record, what outcome was assigned to O=C(O)c1ccccc1C(=O)Nc1ccc(S(=O)(=O)Nc2nccs2)cc1 ?
inactive

Per the assay record, what outcome was assigned to C[C@H](CCC(=O)O)[C@H]1CCC2C3C(CC[C@@]21C)[C@@]1(C)CC[C@@H](O)C[C@H]1C[C@H]3O (stereo partly specified) ?
inactive

Per the assay record, what outcome was assigned to Nc1cc(-c2ccncc2)c[nH]c1=O ?
active
